target: mTOR enzyme (mTOR(1360-2549)+GBL) (Homo sapiens, UniProt P42345)
Sequence (P42345 1360-2549, species assumed): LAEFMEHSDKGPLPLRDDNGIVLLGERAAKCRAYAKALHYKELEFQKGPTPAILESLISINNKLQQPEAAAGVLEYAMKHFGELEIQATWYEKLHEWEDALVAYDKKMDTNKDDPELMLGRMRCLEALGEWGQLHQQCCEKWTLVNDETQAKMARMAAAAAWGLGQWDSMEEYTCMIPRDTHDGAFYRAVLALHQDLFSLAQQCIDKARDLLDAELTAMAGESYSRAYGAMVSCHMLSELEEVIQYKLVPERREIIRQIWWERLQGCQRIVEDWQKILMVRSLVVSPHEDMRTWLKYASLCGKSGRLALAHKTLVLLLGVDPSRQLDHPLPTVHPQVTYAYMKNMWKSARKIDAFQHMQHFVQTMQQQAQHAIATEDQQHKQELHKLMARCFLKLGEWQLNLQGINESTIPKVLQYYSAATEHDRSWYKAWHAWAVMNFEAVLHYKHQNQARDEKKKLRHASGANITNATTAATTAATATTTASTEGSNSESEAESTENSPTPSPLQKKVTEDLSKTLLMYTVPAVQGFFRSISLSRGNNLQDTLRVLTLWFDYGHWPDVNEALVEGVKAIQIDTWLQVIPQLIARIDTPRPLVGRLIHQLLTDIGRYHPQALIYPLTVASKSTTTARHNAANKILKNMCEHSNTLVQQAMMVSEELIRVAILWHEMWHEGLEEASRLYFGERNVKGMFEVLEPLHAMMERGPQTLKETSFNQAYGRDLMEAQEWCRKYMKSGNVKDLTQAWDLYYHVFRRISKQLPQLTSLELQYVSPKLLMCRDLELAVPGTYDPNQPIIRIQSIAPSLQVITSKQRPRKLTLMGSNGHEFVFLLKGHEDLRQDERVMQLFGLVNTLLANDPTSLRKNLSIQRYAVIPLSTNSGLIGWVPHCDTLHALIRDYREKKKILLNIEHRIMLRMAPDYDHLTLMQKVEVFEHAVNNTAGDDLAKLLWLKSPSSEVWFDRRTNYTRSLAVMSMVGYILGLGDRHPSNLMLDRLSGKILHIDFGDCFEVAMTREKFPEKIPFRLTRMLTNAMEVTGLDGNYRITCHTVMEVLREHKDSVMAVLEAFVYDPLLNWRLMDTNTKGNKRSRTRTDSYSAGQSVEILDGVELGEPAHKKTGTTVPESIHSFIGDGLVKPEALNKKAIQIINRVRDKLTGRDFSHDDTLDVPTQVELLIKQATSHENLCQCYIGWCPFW
Sequence (Q9BVC4 whole entry partner, species assumed): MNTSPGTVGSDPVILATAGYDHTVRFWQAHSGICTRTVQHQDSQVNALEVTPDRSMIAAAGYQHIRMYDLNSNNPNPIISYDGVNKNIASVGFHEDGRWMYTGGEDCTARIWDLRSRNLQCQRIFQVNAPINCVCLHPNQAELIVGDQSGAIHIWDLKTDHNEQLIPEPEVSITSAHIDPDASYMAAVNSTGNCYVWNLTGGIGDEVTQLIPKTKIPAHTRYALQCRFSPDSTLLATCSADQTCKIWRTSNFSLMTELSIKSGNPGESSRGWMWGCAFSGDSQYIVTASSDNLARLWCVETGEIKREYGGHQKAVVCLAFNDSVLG
procedure_text: In vitro mTOR kinase assay (TR-FRET)
cond: 0.25 nM mTOR+GBL, 8 uM ATP; values tied to compounds by order of Table 1; 'x or y' = two alternative values for separated diastereomers of unassigned stereochemistry; read-out: activity level (Ki) in the mTOR kinase assay
measurement_name: pKi
FYI, pKi means -log10 of a concentration in mol per litre.

Would you please look over these solved cases?
| molecule | target | pKi |
| --- | --- | --- |
| CCC[C@]1(C)OCc2c(N3CCOCC3)nc(-c3ccc(NC(=O)NCC)cc3)nc21 [Example 73 ef (S)] | mTOR enzyme (mTOR(1360-2549)+GBL) (Homo sapiens, UniProt P42345) | 8.70 |
| C[C@H]1COCCN1c1nc(-c2ccc(NC(=O)NCCO)cc2)nc2c1CCCO2 | mTOR enzyme (mTOR(1360-2549)+GBL) (Homo sapiens, UniProt P42345) | 9.00 |
| CNC(=O)Nc1ccc(-c2nc3c(c(N4CCOC[C@@H]4C)n2)CCC2(CC2)O3)cc1 | mTOR enzyme (mTOR(1360-2549)+GBL) (Homo sapiens, UniProt P42345) | 9.00 |

In: Please give the measured pKi for this molecule: CONC(=O)Nc1ccc(-c2nc3c(c(N4CCOC[C@@H]4C)n2)CCC2(CC2)O3)cc1
Out: 8.00

In: Entry under review: C[C@H]1COCCN1c1nc(-c2ccc(Nc3cccc(=O)[nH]3)cc2)nc2c1CCC1(CC1)O2 . Reported pKi?
Out: 9.00
